# IC50 values compiled below
Target Of Assay: Cathepsin B (Rattus norvegicus)
Protocol Description: Inhibition of recombinant rat Cathepsin B
Measured Parameter: IC50 (µM)

>>> endpoint_result("O=C(N[C@@H](Cc1ccccc1)C(=O)N[C@H]1CNC1=O)OCc1ccccc1")
2.7
>>> endpoint_result("CC(C)CO[C@@H]1NC(=O)[C@H]1NC(=O)[C@H](Cc1ccccc1)NC(=O)OCc1ccccc1")
6.46
>>> endpoint_result("CC(C)(C)O[C@@H]1NC(=O)[C@H]1NC(=O)[C@H](Cc1ccccc1)NC(=O)OCc1ccccc1")
11.4
>>> endpoint_result("CCCCO[C@@H]1NC(=O)[C@H]1NC(=O)[C@H](Cc1ccccc1)NC(=O)OCc1ccccc1")
7.01
>>> endpoint_result("O=C(N[C@@H](Cc1ccccc1)C(=O)N[C@@H]1C(=O)N[C@@H]1Sc1ccccc1)OCc1ccccc1")
39.7
>>> endpoint_result("O=C(CCc1ccccc1)O[C@@H]1NC(=O)[C@H]1NC(=O)[C@H](Cc1ccccc1)NC(=O)OCc1ccccc1")
9.71
>>> endpoint_result("O=C(N[C@@H](Cc1ccccc1)C(=O)N[C@@H]1CNC1=O)OCc1ccccc1")
13.6
>>> endpoint_result("O=C(N[C@@H](Cc1ccccc1)C(=O)N[C@@H]1C(=O)N[C@@H]1Oc1ccccc1)OCc1ccccc1")
0.43

====

Target Of Assay: Cathepsin B (Rattus norvegicus, UniProt P00787)
Sequence (P00787 whole entry): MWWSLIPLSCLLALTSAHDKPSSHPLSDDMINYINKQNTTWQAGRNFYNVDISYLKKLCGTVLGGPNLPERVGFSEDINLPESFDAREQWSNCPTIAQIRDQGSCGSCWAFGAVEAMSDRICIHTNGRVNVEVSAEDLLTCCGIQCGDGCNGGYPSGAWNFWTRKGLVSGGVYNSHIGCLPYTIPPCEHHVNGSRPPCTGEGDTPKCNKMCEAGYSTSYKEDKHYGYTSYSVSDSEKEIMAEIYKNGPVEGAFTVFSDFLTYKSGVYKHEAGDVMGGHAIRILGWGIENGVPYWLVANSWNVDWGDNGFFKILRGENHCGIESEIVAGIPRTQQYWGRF
Protocol Description: Inhibition of recombinant rat Cathepsin B
pIC50: −log10 of the molar value.
So basically: pIC50 at 5 or higher? That is Fulfilled. Lower than 5? That is Not fulfilled.

>>> answer_label("CC(=O)O[C@@H]1NC(=O)[C@H]1NC(=O)[C@H](Cc1ccccc1)NC(=O)OCc1ccccc1")
"Fulfilled"
>>> answer_label("O=C(N[C@@H](Cc1ccccc1)C(=O)N[C@@H]1C(=O)N[C@H]1OC(=O)c1ccccc1)OCc1ccccc1")
"Not fulfilled"
>>> answer_label("O=C(N[C@@H](Cc1ccccc1)C(=O)N[C@@H]1C(=O)N[C@H]1OCc1ccccc1)OCc1ccccc1")
"Not fulfilled"

====

Target Of Assay: Neutrophil elastase (Homo sapiens, UniProt P08246)
Sequence (P08246 whole entry): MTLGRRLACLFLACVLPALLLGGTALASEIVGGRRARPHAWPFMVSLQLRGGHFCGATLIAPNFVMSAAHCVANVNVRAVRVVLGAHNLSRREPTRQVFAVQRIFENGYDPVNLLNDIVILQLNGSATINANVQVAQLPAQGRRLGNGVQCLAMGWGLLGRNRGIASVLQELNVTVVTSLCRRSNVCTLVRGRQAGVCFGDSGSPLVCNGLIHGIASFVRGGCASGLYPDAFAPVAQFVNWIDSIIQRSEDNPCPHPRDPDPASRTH
Protocol Description: Inhibition of human leukocyte elastase(HLE)
pIC50: −log10 of the molar value.
# maps each entry to its pIC50
Measured Parameter: pIC50

>>> endpoint_result("CC(C)CO[C@@H]1NC(=O)[C@H]1NC(=O)[C@H](Cc1ccccc1)NC(=O)OCc1ccccc1")
"< 4.30"
>>> endpoint_result("O=C(N[C@@H](Cc1ccccc1)C(=O)N[C@@H]1C(=O)N[C@H]1Sc1ccccc1)OCc1ccccc1")
"< 4.30"
>>> endpoint_result("CC(=O)O[C@@H]1NC(=O)[C@H]1NC(=O)[C@H](Cc1ccccc1)NC(=O)OCc1ccccc1")
"< 5.00"
>>> endpoint_result("CCCCO[C@@H]1NC(=O)[C@H]1NC(=O)[C@H](Cc1ccccc1)NC(=O)OCc1ccccc1")
"< 4.30"
>>> endpoint_result("O=C(N[C@@H](Cc1ccccc1)C(=O)N[C@@H]1C(=O)N[C@@H]1Sc1ccccc1)OCc1ccccc1")
"< 4.30"
>>> endpoint_result("O=C(N[C@@H](Cc1ccccc1)C(=O)N[C@H]1CNC1=O)OCc1ccccc1")
"< 4.30"
